Cited source: ChEMBL document CHEMBL1201862

# maps each entry to its GI50
# Test system: ACHN
# EXPERIMENTAL DETAILS: NCI tumour cell line growth inhibition, 48 h
The source made the active and inactive calls. No stated cut-off is given here; in the data, active = GI50 up to about 1.1 µM and inactive = higher. Numbered stars: 1 amine (or outer) side, 2 acyl side, 3 side chain; on linkers, the order of the positions; unused ones are H or OH. Bridge positions count the residues as written; N and C are the ends. Square brackets hold non-standard residues; d marks the D form. Peptide text beside a SMILES is read from it. I, II: the chains in the order shown. Actinocin(9to1) = Cc1c2oc3c(C)ccc(C(=O)[*:1])c3nc-2c(C(=O)[*:2])c(N)c1=O; X48 = O=C1CC(C(=O)[*:2])N([*:1])C1; NMeV = CN[CH](C(=O)O)C(C)C; Sar = CNCC(=O)O
READOUT NAME: GI50

>>> value_observed("COC(=O)C[S+]([O-])c1ccccc1 (centres undefined)")
"33.7 µM (inactive)"
>>> value_observed("CCc1cccc(C(C)C)c1C1C(=O)C(=O)N(c2nc3ccccc3s2)C(=O)C1=O")
"> 100 µM (inactive)"
>>> value_observed("Cc1cccc(NC(N)=S)c1")
"> 100 µM (inactive)"
>>> value_observed("Oc1cc(-c2ccccc2)nc2cc(Cl)ccc12")
"0.914 µM (active)"
>>> value_observed("[Se]=P(c1ccccc1)(c1ccccc1)c1ccc(C(c2ccccc2)=P(c2ccccc2)(c2ccccc2)c2ccccc2)cc1")
"2.44 µM (inactive)"
>>> value_observed("COc1cc(Cc2cnc(N)nc2N)cc(OC)c1OCCCNc1ccc([N+](=O)[O-])cc1")
"18 µM (inactive)"
>>> value_observed("O=C1N=C(Nc2ccccc2Cl)SC1C(=O)Nc1ccc([N+](=O)[O-])cc1[N+](=O)[O-] (centres undefined)")
"> 100 µM (inactive)"
>>> value_observed("CCN(CC)CCNC(=O)c1cn2c(ccc3sc4ccccc4c(=O)c32)n1")
"3.64 µM (inactive)"
>>> value_observed("C=C1CCC(O)C/C1=C/C=C1\\CCCC2(C)C1CCC2C(C)CCCC(C)C (centres undefined)")
"16 µM (inactive)"
>>> value_observed("N#CC(/C(CCCC(=O)Nc1cccc([N+](=O)[O-])c1)=N/NC(=O)c1cc2ccccc2cc1O)c1ccccc1 (centres undefined)")
"34.3 µM (inactive)"
>>> value_observed("CC(=O)c1ccc(-c2oc(-c3ccccc3)cc2-c2ccc3c(c2)OCO3)s1")
"> 100 µM (inactive)"
>>> value_observed("CN(C)c1nc(N(C)C)sc(=O)n1")
"> 100 µM (inactive)"
>>> value_observed("COc1cc(NCCC2CCCCN2)c2ncccc2c1 (centres undefined)")
"> 100 µM (inactive)"
>>> value_observed("CCc1cccc(C)c1NC(=O)CCc1nnc(SC)o1")
"> 100 µM (inactive)"
>>> value_observed("Cc1c2oc3c(C)ccc(C(=O)NC4C(=O)NC(C(C)C)C(=O)N5CC(=O)CC5C(=O)N(C)CC(=O)N(C)C(C(C)C)C(=O)OC4C)c3nc-2c(C(=O)NC2C(=O)NC(C(C)C)C(=O)N3CC(=O)CC3C(=O)N(C)CC(=O)N(C)C(C(C)C)C(=O)OC2C)c(N)c1=O (centres undefined) (I: TV[X48][Sar][NMeV] / II: TV[X48][Sar][NMeV]; ester I:1-I:C, II:1-II:C; linker I:N-II:N via Actinocin(9to1); configuration not given here)")
"> 1 µM (active)"
>>> value_observed("O=C(CCN1CCCCC1)c1csc2ccccc12")
"> 100 µM (inactive)"
>>> value_observed("O=c1c2nc(-c3ccccc3)oc2n(-c2ccccc2)c(=O)n1-c1ccccc1")
"25.9 µM (inactive)"
>>> value_observed("Oc1nc(S)nc2nc3c4cccnc4c4ccccc4c3nc12")
"> 100 µM (inactive)"
>>> value_observed("O=C1NCN(c2ccccc2)C12CCN(CCc1ccc3[nH]c(=S)[nH]c3c1)CC2")
"> 100 µM (inactive)"
>>> value_observed("COC1=CC(=O)C2C(C1=O)C(c1ccccc1)[C@H]2C (some centres undefined)")
"25.5 µM (inactive)"
>>> value_observed("CCCCC1(C(NC(=O)c2ccccc2Cl)c2ccncc2)C(=O)N(c2ccccc2)N(c2ccccc2)C1=O (centres undefined)")
"36.6 µM (inactive)"
>>> value_observed("CC1(C)CC2=C(SC3C=CC=CC3N2)C(=O)C1C(=O)C(N)=O (centres undefined)")
"> 100 µM (inactive)"
>>> value_observed("COc1cc(S(=O)(=O)Nc2ccc(-c3csc(/N=C\\c4cccc(Oc5ccccc5)c4)n3)cc2)ccc1Cl")
"15.5 µM (inactive)"
>>> value_observed("CN(C)C(Cc1c[nH]cn1)C(=O)N1CCCC1C(N)=O (centres undefined)")
"> 100 µM (inactive)"
>>> value_observed("C=C1C(=O)OC2CC1C(OC(=O)/C=C/c1ccccc1)C/C(C)=C/CC/C(C)=C/CCC2(C)O (centres undefined)")
"1.61 µM (inactive)"
>>> value_observed("C/C(CC1SCCCS1)=C(/C)CC1SCCCS1")
"> 100 µM (inactive)"
>>> value_observed("CC(=O)O[C@H]1[C@@H](N2CCCCC2)C[C@H]2[C@@H]3CC=C4C[C@@H](N5CCCC5)CC[C@]4(C)[C@H]3CC[C@@]21C")
"> 100 µM (inactive)"
>>> value_observed("[O-][S+]1Cc2ccccc2CSS1 (centres undefined)")
"12.8 µM (inactive)"
>>> value_observed("C1CN2CCO[SiH](O1)OCC2")
"> 100 µM (inactive)"
>>> value_observed("COc1ccc(-c2nc(N)c(C#N)c3c2CCSc2ccc(C)cc2-3)cc1OC")
"19.9 µM (inactive)"
>>> value_observed("CC1CN(CCO)CCN1c1ccccc1 (centres undefined)")
"> 100 µM (inactive)"
>>> value_observed("O=c1[nH]c(=O)n(C2CC(O)C(CO)O2)cc1C#Cc1cc(F)cc(F)c1 (centres undefined)")
"> 100 µM (inactive)"
>>> value_observed("O=C1CCC2(c3ccc(F)cc3)Nc3cc(Cl)ccc3N12 (centres undefined)")
"54.6 µM (inactive)"
>>> value_observed("CC(=S)NC=C(C(N)=O)C(N)=O")
"> 100 µM (inactive)"
>>> value_observed("CC1=NC(=Cc2ccc(O)cc2)C(=O)N1n1c(-c2ccccc2)nc2ccccc2c1=O")
"> 100 µM (inactive)"
>>> value_observed("COc1ccc(/C=C2/CSC/C(=C/c3ccc(OC)c(OC)c3)C2=O)cc1OC")
"2.31 µM (inactive)"
>>> value_observed("CN(N=O)C(=O)N[C@H]1C(O)O[C@H](CO)[C@@H](O)[C@@H]1O (some centres undefined)")
"> 750 µM (inactive)"
>>> value_observed("CC(=O)OCCOCNC(=S)N/N=C(\\C)c1ccco1")
"> 100 µM (inactive)"
>>> value_observed("COc1cc(/C=C(\\NC(=O)c2ccccc2)c2nc3c(O)nc(S)nc3[nH]2)cc(OC)c1OC")
"> 100 µM (inactive)"
